Tested on: Escherichia coli TOP10
Assay: shrunken log2 fold change of peptide-encoding DNA abundance (4.5 h post-induction vs induction); higher = less antimicrobial activity (less host growth inhibition)
Details: time post-induction: 4.5 h; library: site-saturation at positions 5, 18, 19, 20
Measurement label: shrunken log2 fold change

RRIRIRPPRLPRPRPRPNFEPRP	-0.218

[ask] For "RRIRRRPPRLPRPRPRPYGNPRP" , what is its reported shrunken log2 fold change?
[reply] -0.219

[ask] # query: shrunken log2 fold change of entry "RRIRARPPRLPRPRPRPGYTPRP"
[reply] 0.324

[ask] Requested read-out: shrunken log2 fold change. Entry: "RRIRTRPPRLPRPRPRPNGMPRP"
[reply] -0.245

[ask] Could you share which shrunken log2 fold change value was measured for "RRIRDRPPRLPRPRPRPFHRPRP" ?
[reply] -0.261

[ask] Look at this sequence and give its reported shrunken log2 fold change. "RRIRKRPPRLPRPRPRPVSKPRP"
[reply] 0.128

----------
Test system: Escherichia coli TOP10
Test: shrunken log2 fold change of peptide-encoding DNA abundance (4.5 h post-induction vs induction); higher = less antimicrobial activity (less host growth inhibition)
Settings: time post-induction: 4.5 h; library: site-saturation at positions 5, 18, 19, 20
Measurement label: shrunken log2 fold change
Please reply with the value in numeric form only.

Example entries and their recorded answers appear below.
RRIRIRPPRLPRPRPRPHWHPRP	-0.153
RRIRPRPPRLPRPRPRPMYYPRP	-0.631
RRIRQRPPRLPRPRPRPQAYPRP	-0.0257
RRIRSRPPRLPRPRPRPSRFPRP	-0.0392
RRIRFRPPRLPRPRPRPVNPPRP	-0.154

[ask] Could you share what shrunken log2 fold change was measured for "RRIRHRPPRLPRPRPRPFFNPRP" , tested on Escherichia coli TOP10?
[reply] -0.632

[ask] Could you share what shrunken log2 fold change was measured for "RRIRQRPPRLPRPRPRPPEAPRP" , tested on Escherichia coli TOP10?
[reply] 0.243

[ask] Report shrunken log2 fold change for "RRIRYRPPRLPRPRPRPFWMPRP" tested on Escherichia coli TOP10.
[reply] -0.297

[ask] Tell me reported shrunken log2 fold change for "RRIRLRPPRLPRPRPRPQQHPRP" , tested with Escherichia coli TOP10.
[reply] -0.212

[ask] Recorded shrunken log2 fold change for "RRIRKRPPRLPRPRPRPWLIPRP" with Escherichia coli TOP10, please?
[reply] 0.109

[ask] Query shrunken log2 fold change on Escherichia coli TOP10 for "RRIRIRPPRLPRPRPRPTVWPRP"
[reply] 0.163

----------
System: Escherichia coli TOP10
Assay: shrunken log2 fold change of peptide-encoding DNA abundance (4.5 h post-induction vs induction); higher = less antimicrobial activity (less host growth inhibition)
Conditions: time post-induction: 4.5 h; library: site-saturation at positions 5, 18, 19, 20
shrunken log2 fold change reference

Here's what some known entries look like.
RRIRNRPPRLPRPRPRPYNTPRP	-1.49
RRIRLRPPRLPRPRPRPMARPRP	0.0339
RRIRKRPPRLPRPRPRPTALPRP	0.213

[ask] Please give the measured shrunken log2 fold change for this sequence: "RRIRYRPPRLPRPRPRPYYNPRP"
[reply] -0.231

[ask] Look up shrunken log2 fold change: "RRIRVRPPRLPRPRPRPAYNPRP"
[reply] -0.394

[ask] Bench note: what shrunken log2 fold change did "RRIRKRPPRLPRPRPRPYHMPRP" show?
[reply] -0.0573

[ask] Recorded shrunken log2 fold change for "RRIRDRPPRLPRPRPRPHAHPRP" , please?
[reply] 0.0605

[ask] Requested read-out: shrunken log2 fold change. Entry: "RRIRVRPPRLPRPRPRPYLQPRP"
[reply] -0.946

[ask] shrunken log2 fold change for "RRIRHRPPRLPRPRPRPNWKPRP" ?
[reply] -0.0172

[ask] Could you share which shrunken log2 fold change value was measured for "RRIRKRPPRLPRPRPRPIMMPRP" ?
[reply] -0.0529

[ask] Reported shrunken log2 fold change, sequence "RRIRHRPPRLPRPRPRPRVSPRP" : ____
[reply] 0.106

[ask] // query shrunken log2 fold change value for entry "RRIRHRPPRLPRPRPRPFFTPRP"
[reply] -0.231

[ask] Which shrunken log2 fold change value is on record for "RRIRNRPPRLPRPRPRPPQDPRP" ?
[reply] 0.0281

----------
Tested on: Escherichia coli TOP10
Assay: shrunken log2 fold change of peptide-encoding DNA abundance (4.5 h post-induction vs induction); higher = less antimicrobial activity (less host growth inhibition)
Details: time post-induction: 4.5 h; library: site-saturation at positions 5, 18, 19, 20
Measurement label: shrunken log2 fold change
The response must contain the number and no unit.

RRIRMRPPRLPRPRPRPLTVPRP	0.169

[ask] Value lookup for shrunken log2 fold change; key = "RRIRPRPPRLPRPRPRPDYSPRP"
[reply] -0.815

[ask] Which shrunken log2 fold change is reported for this sequence? "RRIRVRPPRLPRPRPRPDFAPRP"
[reply] 0.147

[ask] # input sequence: "RRIRERPPRLPRPRPRPVGKPRP" ; wanted: its shrunken log2 fold change
[reply] -0.309

[ask] Quick check: shrunken log2 fold change of "RRIRWRPPRLPRPRPRPLLKPRP" ?
[reply] -0.0261

----------
System: Escherichia coli TOP10
Assay: shrunken log2 fold change of peptide-encoding DNA abundance (4.5 h post-induction vs induction); higher = less antimicrobial activity (less host growth inhibition)
Settings: time post-induction: 4.5 h; library: site-saturation at positions 5, 18, 19, 20
shrunken log2 fold change by entry:

Below: 3 sequences and their reported shrunken log2 fold change.
RRIRGRPPRLPRPRPRPQYNPRP	-0.0557
RRIRIRPPRLPRPRPRPKDGPRP	-0.105
RRIRARPPRLPRPRPRPFTFPRP	-0.0365

[ask] Fill in the recorded shrunken log2 fold change for this sequence, with Escherichia coli TOP10 as test system: "RRIRQRPPRLPRPRPRPTHEPRP"
[reply] 0.881

[ask] // lookup shrunken log2 fold change | system=Escherichia coli TOP10 | key= "RRIRHRPPRLPRPRPRPKEAPRP"
[reply] 0.00884

[ask] What reported shrunken log2 fold change corresponds to "RRIRVRPPRLPRPRPRPAWVPRP" on Escherichia coli TOP10?
[reply] 0.459

[ask] Item: "RRIRQRPPRLPRPRPRPVRKPRP" Test system: Escherichia coli TOP10 Read-out: shrunken log2 fold change Value: ?
[reply] -0.0285

[ask] Test system Escherichia coli TOP10; read-out shrunken log2 fold change; what value for "RRIRMRPPRLPRPRPRPIIYPRP" ?
[reply] -0.732

[ask] For Escherichia coli TOP10, provide shrunken log2 fold change of "RRIRTRPPRLPRPRPRPNKKPRP" please.
[reply] -0.26

[ask] I'm curious: which shrunken log2 fold change was measured for "RRIRFRPPRLPRPRPRPRDGPRP" tested on Escherichia coli TOP10?
[reply] 1.36

[ask] What is its shrunken log2 fold change for Escherichia coli TOP10? Entry: "RRIRLRPPRLPRPRPRPSEAPRP"
[reply] 0.12

[ask] Param readout= shrunken log2 fold change; system= Escherichia coli TOP10; entry= "RRIRARPPRLPRPRPRPGMIPRP" ; returns value.
[reply] 0.237

[ask] Reported shrunken log2 fold change for Escherichia coli TOP10, given "RRIRYRPPRLPRPRPRPPMNPRP" ?
[reply] -0.728

[ask] What measured shrunken log2 fold change is associated with "RRIRHRPPRLPRPRPRPRCLPRP" on Escherichia coli TOP10?
[reply] -0.169

[ask] GET /values?readout=shrunken log2 fold change&system=Escherichia coli TOP10&item= "RRIRKRPPRLPRPRPRPEEFPRP"
[reply] 0.227

----------
Here, each record is paired with measured shrunken log2 fold change data.
Test system: Escherichia coli TOP10;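 further: peptides expressed intracellularly from a pBAD plasmid library in pooled LB shake-flask culture, induced with 0.3% L-arabinose, DNA abundance read by NGS, three biological replicates, DESeq2 with apeglm shrinkage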
Assay: shrunken log2 fold change of peptide-encoding DNA abundance (4.5 h post-induction vs induction); higher = less antimicrobial activity (less host growth inhibition)
Conditions: time post-induction: 4.5 h; library: site-saturation at positions 5, 18, 19, 20
# print the numeric value only

These recorded examples may help you get a feel for the data.
RRIRKRPPRLPRPRPRPLWNPRP	0.109
RRIRMRPPRLPRPRPRPHFNPRP	-0.0825
RRIRIRPPRLPRPRPRPMRPPRP	0.194
RRIRGRPPRLPRPRPRPCLWPRP	0.426
RRIRKRPPRLPRPRPRPEPYPRP	-0.0587

[ask] # get_value(readout='shrunken log2 fold change', item= "RRIRARPPRLPRPRPRPARYPRP" )
[reply] 0.12

[ask] Which shrunken log2 fold change value belongs to "RRIRWRPPRLPRPRPRPASPPRP" ?
[reply] 0.131

[ask] State the recorded shrunken log2 fold change for this entry: "RRIRWRPPRLPRPRPRPEIRPRP"
[reply] 0.00534

[ask] Name the recorded shrunken log2 fold change for "RRIRYRPPRLPRPRPRPPWIPRP" .
[reply] -0.447

[ask] What value of shrunken log2 fold change has been recorded for this entry: "RRIRRRPPRLPRPRPRPSNRPRP"
[reply] -0.0253

[ask] Using the record for "RRIRKRPPRLPRPRPRPQNLPRP" , report its shrunken log2 fold change.
[reply] 0.0263

[ask] I have this sequence here, "RRIRLRPPRLPRPRPRPCISPRP" , and I need its recorded shrunken log2 fold change.
[reply] -0.177

[ask] Given the sequence "RRIRHRPPRLPRPRPRPKQVPRP" , what is its reported shrunken log2 fold change?
[reply] -0.482

[ask] Entry "RRIRTRPPRLPRPRPRPPLMPRP" has what shrunken log2 fold change?
[reply] -0.0314

// data source = the supplement of paper PMC9112550
